- Test system: Xanthomonas oryzae
- test name: Antibacterial activity against Xanthomonas oryzae at 50 ug/mL incubated for 24 hrs by agar well diffusion method
- Assay type: functional
- condition details: read-out: IZ
Starred links: 1 amine or outer side, 2 acyl side, 3 side chain; linkers in the order of their positions; H or OH if unused. Residues, ends and D or L forms follow the SMILES beside them. *: point of attachment. Thiocarbamoyl(N-2-FPh) = Fc1ccccc1NC(=S)*; NH(4-MeO-phenyl) = COc1ccc(N*)cc1; X1 = c1ccc2c(N3CCN(*)CC3)nsc2c1; NH(2-F-phenyl) = Fc1ccccc1N*; X2 = Fc1ccc(NC(=S)*)cc1; Boc = CC(C)(C)OC(=O)*; CO = O=C([*:1])[*:2]
Param threshold (20 mm) applies to zone of inhibition at 50 µg/mL; output class 1 when value >= threshold, class 0 when value < threshold.

COc1ccc(NC(=O)NCC(=O)N[C@H](C(=O)NCC(=O)N[C@H](C(=O)N2CCC[C@H]2C(=O)N2CCN(c3nsc4ccccc34)CC2)C(C)C)C(C)C)cc1 ({NH(4-MeO-phenyl)-CO}-GVGVP-X1) = class 1
CC(C)[C@H](NC(=O)CNC(=O)[C@H](Cc1ccccc1)NC(=O)CNC(=S)Nc1ccccc1F)C(=O)N1CCC[C@H]1C(=O)N1CCN(c2nsc3ccccc23)CC1 ({Thiocarbamoyl(N-2-FPh)}-GFGVP-X1) = class 1
CC(C)[C@H](NC(=O)CNC(=O)[C@H](Cc1ccccc1)NC(=O)CNC(=O)Nc1ccccc1F)C(=O)N1CCC[C@H]1C(=O)N1CCN(c2nsc3ccccc23)CC1 ({NH(2-F-phenyl)-CO}-GFGVP-X1) = class 1
CC(C)[C@H](NC(=O)CNC(=S)Nc1ccc(F)cc1)C(=O)NCC(=O)N[C@H](C(=O)N1CCC[C@H]1C(=O)N1CCN(c2nsc3ccccc23)CC1)C(C)C (X2-GVGVP-X1) = class 1

Now look at this entry.
Query: Could you verify whether the entry CC(C)[C@H](NC(=O)CNC(=O)[C@H](Cc1ccccc1)NC(=O)CNC(=O)OC(C)(C)C)C(=O)N1CCC[C@H]1C(=O)N1CCN(c2nsc3ccccc23)CC1 (Boc-GFGVP-X1) shows zone of inhibition at 50 µg/mL of no less than 20 mm?
Reply: class 0

----------
- Test system: Aspergillus flavus
- test name: Antifungal activity against Aspergillus flavus at 50 ug/mL incubated for 3 days by agar well diffusion method
- Assay type: functional
- condition details: 72 h, read-out: IZ
Starred links: 1 amine or outer side, 2 acyl side, 3 side chain; linkers in the order of their positions; H or OH if unused. Residues, ends and D or L forms follow the SMILES beside them. *: point of attachment. Thiocarbamoyl(N-2-FPh) = Fc1ccccc1NC(=S)*; NH(4-MeO-phenyl) = COc1ccc(N*)cc1; X1 = c1ccc2c(N3CCN(*)CC3)nsc2c1; NH(3-MeOPh) = COc1cccc(N*)c1; X4 = COc1cccc(NC(=S)*)c1; X2 = Fc1ccc(NC(=S)*)cc1; X5 = COc1ccccc1NC(=S)*; Boc = CC(C)(C)OC(=O)*; CO = O=C([*:1])[*:2]; X6 = Fc1cccc(N*)c1
metric: zone of inhibition at 50 µg/mL (mm)
Number in mm, nothing else.

CC(C)[C@H](NC(=O)CNC(=O)OC(C)(C)C)C(=O)NCC(=O)N[C@H](C(=O)N1CCC[C@H]1C(=O)N1CCN(c2nsc3ccccc23)CC1)C(C)C (Boc-GVGVP-X1) = 4
CC(C)[C@H](NC(=O)CNC(=O)[C@H](Cc1ccccc1)NC(=O)CNC(=S)Nc1ccc(F)cc1)C(=O)N1CCC[C@H]1C(=O)N1CCN(c2nsc3ccccc23)CC1 (X2-GFGVP-X1) = 36
CC(C)[C@H](NC(=O)CNC(=S)Nc1ccccc1F)C(=O)NCC(=O)N[C@H](C(=O)N1CCC[C@H]1C(=O)N1CCN(c2nsc3ccccc23)CC1)C(C)C ({Thiocarbamoyl(N-2-FPh)}-GVGVP-X1) = 29
COc1cccc(NC(=O)NCC(=O)N[C@H](C(=O)NCC(=O)N[C@H](C(=O)N2CCC[C@H]2C(=O)N2CCN(c3nsc4ccccc34)CC2)C(C)C)C(C)C)c1 ({NH(3-MeOPh)-CO}-GVGVP-X1) = 17
COc1cccc(NC(=S)NCC(=O)N[C@H](C(=O)NCC(=O)N[C@H](C(=O)N2CCC[C@H]2C(=O)N2CCN(c3nsc4ccccc34)CC2)C(C)C)C(C)C)c1 (X4-GVGVP-X1) = 18

Query: Give zone of inhibition at 50 µg/mL for the following compound: CC(C)[C@H](NC(=O)CNC(=S)Nc1ccc(F)cc1)C(=O)NCC(=O)N[C@H](C(=O)N1CCC[C@H]1C(=O)N1CCN(c2nsc3ccccc23)CC1)C(C)C (X2-GVGVP-X1)
Reply: 34

Query: Give zone of inhibition at 50 µg/mL for the following compound: COc1ccc(NC(=O)NCC(=O)N[C@H](C(=O)NCC(=O)N[C@H](C(=O)N2CCC[C@H]2C(=O)N2CCN(c3nsc4ccccc34)CC2)C(C)C)C(C)C)cc1 ({NH(4-MeO-phenyl)-CO}-GVGVP-X1)
Reply: 26

Query: Give zone of inhibition at 50 µg/mL for the following compound: CC(C)[C@H](NC(=O)CNC(=O)Nc1cccc(F)c1)C(=O)NCC(=O)N[C@H](C(=O)N1CCC[C@H]1C(=O)N1CCN(c2nsc3ccccc23)CC1)C(C)C ({X6-CO}-GVGVP-X1)
Reply: 25

Query: Give zone of inhibition at 50 µg/mL for the following compound: COc1ccccc1NC(=S)NCC(=O)N[C@H](C(=O)NCC(=O)N[C@H](C(=O)N1CCC[C@H]1C(=O)N1CCN(c2nsc3ccccc23)CC1)C(C)C)C(C)C (X5-GVGVP-X1)
Reply: 22

Query: Give zone of inhibition at 50 µg/mL for the following compound: COc1cccc(NC(=O)NCC(=O)N[C@@H](Cc2ccccc2)C(=O)NCC(=O)N[C@H](C(=O)N2CCC[C@H]2C(=O)N2CCN(c3nsc4ccccc34)CC2)C(C)C)c1 ({NH(3-MeOPh)-CO}-GFGVP-X1)
Reply: 21
